Molecular target: T1, FBF-2 RBD (Caenorhabditis elegans, UniProt Q09312 164-575)
T1 sequence: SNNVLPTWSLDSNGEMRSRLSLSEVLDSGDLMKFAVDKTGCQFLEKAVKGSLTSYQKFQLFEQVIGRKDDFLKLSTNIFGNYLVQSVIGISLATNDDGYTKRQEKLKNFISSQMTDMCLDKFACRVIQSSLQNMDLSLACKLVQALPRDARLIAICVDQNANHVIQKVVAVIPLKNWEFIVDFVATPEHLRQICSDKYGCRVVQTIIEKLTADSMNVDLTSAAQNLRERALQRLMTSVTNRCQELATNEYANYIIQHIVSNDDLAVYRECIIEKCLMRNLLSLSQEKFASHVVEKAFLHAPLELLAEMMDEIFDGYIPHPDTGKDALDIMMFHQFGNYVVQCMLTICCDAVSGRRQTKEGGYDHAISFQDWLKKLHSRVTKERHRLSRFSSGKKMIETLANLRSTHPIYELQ
Assay: EMSA; no LST-1; EMSA: FBF-2 in 20 mM HEPES pH 7.4, 150 mM NaCl, 0.5 mM TCEP mixed 1:1 with 5 nM final RNA in 10 mM HEPES pH 7.4, 0.01% Tween 20, 0.1 mg/ml BSA, 0.1 mg/ml yeast
Settings: protein: recombinant; tags: none (His6-SUMO removed with TEV protease); label: 3'-Cy5
measured_attribute: Kd

Kindly note the recorded Kd for AUCAUGUGCCAUAC (ssRNA) [gld-1 FBEa RNA (EMSA)] , which is 70 nM

All values here come from paper PMC10641069.
